assay-readout: melting point

Consider the worked cases shown below.
>>> endpoint_value("CC(C)(C)OC(=O)N1CCN(c2ccc(Nc3ncc4ccc(N)nc4n3)cc2)CC1")
"219 to 220 °C"
>>> endpoint_value("CCCC[C@H](NS(=O)(=O)c1ccc(Br)cc1)C(=S)Nc1ccc(CC(=O)O)cc1")
"194 to 195 °C"
>>> endpoint_value("Cc1ccccc1C1(C#N)C2CC3CC(C2)CC1C3 (stereo not given)")
"80 to 81 °C"
>>> endpoint_value("CNC(=O)N1CC(C)(C)NC(C)(C)CC1=O")
"147 to 149 °C"
>>> endpoint_value("CCOC(=O)CC(=O)N1C(C(=O)OC(C)(C)C)CCCN1C(=O)OCc1ccccc1 (stereo not given)")
"45 to 47 °C"
>>> endpoint_value("FC(F)(F)C1(c2cc(Cl)cc(Cl)c2)CC(c2ccc(Br)c3ccccc23)=NO1 (stereo not given)")
"127 to 130 °C"
>>> endpoint_value("COc1cc(OC)c2c(C)c(CCOS(C)(=O)=O)c(=O)oc2c1")
"170 to 172 °C"
>>> endpoint_value("OCC12CN3CN(C(c4ccccc4)N(C1)C3c1ccccc1)C2c1ccccc1 (stereo not given)")
"91 to 93 °C"

Prompt: Name the reported melting point value associated with the compound COc1cc(C2CCCCC2)ccc1C(=O)CCC(=O)O
Completion: 130 to 131 °C

Prompt: Name the reported melting point value associated with the compound CCOC(=O)c1ncc2[nH]c3cccc(CN4CCOCC4)c3c2c1COC
Completion: 195 to 196 °C

* * *

Listed next: entries and their corresponding melting point.

Consider the worked cases shown below.
>>> endpoint_value("O=C(Cn1c(-c2ccc(Cl)cc2)nc2cccnc21)N1CCOCC1")
"213 to 216 °C"
>>> endpoint_value("Cc1ccc(S(=O)(=O)NO[Si](C)(C)C)cc1")
"87 to 90 °C"
>>> endpoint_value("CCCCc1nc2cccc(CC#N)c2n1Cc1ccccc1Cl")
"124 to 125 °C"
>>> endpoint_value("CN(C)S(=O)(=O)c1ccc(NC(=O)C2(C)CC2)cc1C(F)(F)F")
"153 to 156 °C"
>>> endpoint_value("COc1ccc(-c2coc3ccc(-c4nnc(SC)o4)cc23)cc1")
"156 to 157 °C"

Prompt: Name the reported melting point value associated with the molecule N#CCC(=O)OC(COc1ccc(C(=O)c2ccccc2)c(O)c1)COc1ccc(C(=O)c2ccccc2)c(O)c1
Completion: 167 to 168 °C

Prompt: Name the reported melting point value associated with the molecule Cc1ccc(NCc2ccc(C(=O)Nc3ccccc3N)cc2)cc1Nc1nccc(-c2cccnc2)n1
Completion: 112 to 120 °C

Prompt: Name the reported melting point value associated with the molecule CCCC(NC(=O)Nc1cccc(C)c1)C(=S)N(CC(=O)OC(C)(C)C)c1ccccc1 (racemic)
Completion: 142 °C

* * *

Listed next: entries and their corresponding melting point.

Consider the worked cases shown below.
>>> endpoint_value("CNc1cc(S(=O)(=O)c2cccc(C(F)(F)F)c2)cc(Br)n1")
"115 to 117 °C"
>>> endpoint_value("COC(=O)OC(C)OC1=C(C(=O)Nc2ccccn2)N(C)S(=O)(=O)c2ccccc21 (stereo unspecified)")
"150 to 151 °C"
>>> endpoint_value("CCOC(=O)c1sc2nc(C(C)C)ccc2c1N")
"161 to 162 °C"
>>> endpoint_value("CCCc1c(O)c(C(C)=O)cc2c(C)cc(C(=O)OCC)nc12")
"150 to 151 °C"
>>> endpoint_value("c1ccc2c(c1)N=C(N1CCNCC1)c1ccccc1S2")
"66 to 69 °C"

Prompt: Name the reported melting point value associated with the molecule CC(=O)CCc1ccc(I)cc1
Completion: 75 to 76 °C

Prompt: Name the reported melting point value associated with the molecule CC(C)(C)[C@H]1CC[C@@H](Nc2nnc(Cc3ccncc3)c3ccccc23)CC1
Completion: 64 to 65 °C

Prompt: Name the reported melting point value associated with the molecule O=CC1CC1(c1ccccc1)c1ccccc1 (stereo unspecified)
Completion: 71 to 73 °C

Prompt: Name the reported melting point value associated with the molecule NS(=O)(=O)c1cc(S(=O)(=O)N(N2CCCCC2)N2CCCCC2)c(Cl)cc1Cl
Completion: 170 °C

Prompt: Name the reported melting point value associated with the molecule COc1ccc(C2Cc3ccccc3C2=O)cc1 (stereo unspecified)
Completion: 83 to 85 °C

Prompt: Name the reported melting point value associated with the molecule Cc1cc2c(cc1OCCn1ccnc1)CC/C(=C\c1cccs1)C2=O
Completion: 150 to 151 °C

* * *

assay-readout: melting point

>>> endpoint_value("Cc1cccc2ncn(C3CCC(=O)NC3=O)c(=O)c12 (stereo not given)")
"262 to 264 °C"
>>> endpoint_value("Cc1cc(C)c([N+](=O)[O-])c(C)c1-c1n[nH]c2c(C#N)c(C(C)(C)C)nn12")
"265 to 266 °C"
>>> endpoint_value("CC1(C)CC(=O)C(S(=O)CC2CCCCC2)=C(O)C1 (stereo not given)")
"77 to 79.5 °C"
>>> endpoint_value("Cc1cc2c(cc1C(C)SCC(=O)O)OCO2 (stereo not given)")
"93.5 to 94.5 °C"

Prompt: Name the reported melting point value associated with the compound CC(C)(C)C(NC(=O)c1cccc(Cl)c1)Nc1c(Nc2cccnc2Cl)c(=O)c1=O (stereo not given)
Completion: 213 to 214 °C

Prompt: Name the reported melting point value associated with the compound COC1=C(OC)C(=O)C2=C(CCC(CCOc3cccnc3)CC2)C1=O
Completion: 80 to 82 °C

Prompt: Name the reported melting point value associated with the compound CCc1[nH]nc2c1C(=O)c1c(NC(=O)CN3CCC(CN)CC3)cccc1-2
Completion: 174 to 176 °C

Prompt: Name the reported melting point value associated with the compound CCc1nnc2c(Cl)nc3cc(OC)ccc3n12
Completion: 173 to 175 °C

Prompt: Name the reported melting point value associated with the compound CC(=O)O[C@@H]1CN2C(=O)N(c3cc(Cl)cc(Cl)c3)C(=O)[C@]2(Cc2ccc(Br)cc2)C1
Completion: 150 °C

Prompt: Name the reported melting point value associated with the compound O=C(O)COCCN1CCN(C(c2ccccc2)c2ccccc2)CC1
Completion: 100 °C

* * *

assay-readout: melting point

Consider the worked cases shown below.
>>> endpoint_value("Cc1ccc(C=CC(=O)C(CCC(=O)O)(Cc2ccccc2Cl)c2ccccc2)cc1 (stereo not given)")
"120 to 147 °C"
>>> endpoint_value("CCCCc1nc2cccc(C(=O)OC)c2n1Cc1ccc(-c2ccccc2N2CC(=O)NC2=O)cc1")
"149 to 151 °C"
>>> endpoint_value("CC(=O)Nc1ncc(Cc2ccc(Cl)cc2)c(NC(C)=O)n1")
"147 °C"
>>> endpoint_value("CN1CCC(c2cn(S(=O)(=O)c3c(F)cccc3F)c3ccc(OS(=O)(=O)c4c(F)cccc4F)cc23)CC1")
"95 to 98 °C"
>>> endpoint_value("CC(=O)C(O)C1OC(n2cc(Br)c(=O)[nH]c2=O)CC1(O)C(C)=O (stereo not given)")
"116 to 120 °C"

Prompt: Name the reported melting point value associated with the compound Nc1cc(OCc2cccc(I)c2)c(C(=O)NC2CN3CCC2CC3)cc1Cl (stereo not given)
Completion: 102 to 104 °C

Prompt: Name the reported melting point value associated with the compound CSc1ccc(N2CC=C(c3cccc(C)c3)CC2)nn1
Completion: 130 °C

Prompt: Name the reported melting point value associated with the compound CCc1nc(=O)c2cc3ccccc3nc2[nH]1
Completion: 240 to 245 °C

Prompt: Name the reported melting point value associated with the compound CC(C)(C)OC(=O)Nc1sc(Cl)nc1Cl
Completion: 111 to 112 °C

Prompt: Name the reported melting point value associated with the compound O=C(OCc1ccccc1)N1CCc2c([nH]c3ccccc23)C1c1ccc2c(c1)OCO2 (stereo not given)
Completion: 98 to 101 °C

Prompt: Name the reported melting point value associated with the compound CCCOc1ccccc1-c1nc2nc(NCC(C)O)ncc2c(=O)[nH]1 (stereo not given)
Completion: 212 to 214 °C

Prompt: Name the reported melting point value associated with the compound CC1(C)CC(=O)C(c2cccc(Cl)c2)C(=O)C1
Completion: 155 to 158 °C

Prompt: Name the reported melting point value associated with the compound O=C(O)COc1ccc(SCc2cc(-c3ccc(Cl)cc3)on2)c2c1CCC2
Completion: 112 to 114 °C

Prompt: Name the reported melting point value associated with the compound CCn1cc(-c2coc3ccc(-c4nnc(C)o4)cc23)cn1
Completion: 122 to 123 °C

Prompt: Name the reported melting point value associated with the compound CCOc1ccc(-c2nc(-c3ccc(OC4OC(COC(C)=O)C(OC(C)=O)C(OC(C)=O)C4OC(C)=O)cc3)cs2)cc1OCC (stereo not given)
Completion: 180 to 181 °C

Prompt: Name the reported melting point value associated with the compound NC(=O)N1c2ccccc2C=C(Cl)c2ccccc21
Completion: 183 to 185 °C

Prompt: Name the reported melting point value associated with the compound c1ccc2c(c1)ncc1nc(C3CCC3)[nH]c12
Completion: 191 to 192 °C

Prompt: Name the reported melting point value associated with the compound C[C@@H](COS(C)(=O)=O)NS(=O)(=O)c1ccccc1[N+](=O)[O-]
Completion: 125 to 126 °C

Prompt: Name the reported melting point value associated with the compound CN(N)c1cc(N)nc(N)n1
Completion: 214 to 217 °C

Prompt: Name the reported melting point value associated with the compound CNC(=O)Cc1c(-c2ccccc2)nn2cccnc12
Completion: 211 to 213 °C
